Each entry below lists one item and its recorded melting point value.
readout: melting point

- molecule: "COC(=O)Cc1cccc(Cc2ccccc2C(=O)O)c1"
  result: "67 to 70 °C"
- molecule: "Cc1cc2c(cc1C13CC1CCC3=O)C(C)(C)CCC2(C)C (stereo not given)"
  result: "152 to 154 °C"
- molecule: "Cc1ccnc(CCOc2ccc(NC(=O)N(C)C)cc2)c1"
  result: "132 to 133 °C"
- molecule: "COC(=O)c1ccccc1NC(=O)C=C(c1ccc(Cl)cc1)c1ccc(Cl)cc1"
  result: "141 to 143 °C"
- molecule: "COC(=O)[C@@H]1O[C@H](c2ccc(OC)cc2)N(C(=O)OC(C)(C)C)[C@H]1c1ccccc1"
  result: "104 to 105 °C"
- molecule: "CN(C)c1ccc(C2CC3(C)C(O)CC(O)C3C3CCC4CC5(CCC4=C23)OCCO5)cc1 (stereo not given)"
  result: "107 to 109 °C"
- molecule: "O=C(c1ccc([N+](=O)[O-])c(OCc2ccc(-c3ccccc3-c3nnnn3C(c3ccccc3)(c3ccccc3)c3ccccc3)cc2)c1)N1CCOCC1"
  result: "188 to 190 °C"
- molecule: "CCN(CC)CCNC(=O)c1nc(Cl)c(OC)nc1OC"
  result: "88 °C"
- molecule: "C=C(COC)c1ccc(NC(=O)N(C)C)cc1"
  result: "96 to 97 °C"
- molecule: "COc1ccccc1N1CCN(CCn2c(=O)c3ccsc3n(C)c2=O)CC1"
  result: "174 to 176 °C"

----------
Each entry below lists one item and its recorded melting point value.
readout: melting point

- compound: "Cc1cc2cc(Cl)ccc2n1Cc1ccccc1"
  readout: "melting point"
  result: "75 to 76 °C"
- compound: "COc1ccc(-c2ccc(C(=O)Nc3ccc4cc(CN5CCCC5)cnc4c3F)cc2)cc1"
  readout: "melting point"
  result: "217 to 220 °C"
- compound: "COC(=O)CCCCC(=O)Nc1c(I)c(C(=O)O)c(I)c(N(C)C(C)=O)c1I"
  readout: "melting point"
  result: "229 to 232 °C"
- compound: "O=C(NCc1ccccc1)c1ccnc(NC(=O)c2cccs2)c1"
  readout: "melting point"
  result: "160 to 162 °C"
- compound: "Cc1c(N2CC3(CC3)[C@](C)(N)C2)ccc2c(=O)c(C(=O)O)cn(C3CC3)c12"
  readout: "melting point"
  result: "227 to 230 °C"
- compound: "Cc1cnc(-c2ncn3c2[C@@H]2CCCN2C(=O)c2c(Cl)cccc2-3)o1"
  readout: "melting point"
  result: "228 to 230 °C"
- compound: "OCc1cccc2c1CCCN2"
  readout: "melting point"
  result: "120 to 122 °C"
- compound: "CC1(C)CC(=NN)c2ccccc21"
  readout: "melting point"
  result: "194 to 197 °C"
- compound: "CCN1CCN(C2=Nc3cc(Cl)ccc3Oc3ccccc32)CC1"
  readout: "melting point"
  result: "100 to 101 °C"
- compound: "CCOC(=O)/C=C/c1cccc(Br)c1"
  readout: "melting point"
  result: "26 to 28 °C"
- compound: "OC1(C2CC2)c2ccccc2OCc2ncccc21 (stereo unspecified)"
  readout: "melting point"
  result: "210 to 212 °C"

----------
Each entry below lists one item and its recorded melting point value.
readout: melting point

- compound: "Cc1oc(-c2ccccc2)nc1COc1ccc(CCc2oc(-c3ccccc3)nc2CO)cc1"
  readout: "melting point"
  result: "142 to 143 °C"
- compound: "NCC1COc2cc(F)cc(-c3cccc(Cl)c3)c2N1 (centres undefined)"
  readout: "melting point"
  result: "76 °C"
- compound: "N#Cc1c(N2CCCCC2)cc(-c2ccc3ccc4cccc5ccc2c3c45)c2c1C(=O)c1ccccc1-2"
  readout: "melting point"
  result: "180 to 182 °C"
- compound: "CC(C)Oc1ccc(OCc2ccccc2)cc1-c1nc2ccc(CO)nc2[nH]1"
  readout: "melting point"
  result: "167 to 168 °C"
- compound: "Cc1oc(-c2ccccc2)nc1C(=O)COc1ccc(CCC2OCCO2)cc1"
  readout: "melting point"
  result: "119 to 120 °C"
- compound: "COc1ccc(C(=N)N)cc1C"
  readout: "melting point"
  result: "151 to 153 °C"
- compound: "COc1cccn(C2c3cc(S(=O)(=O)C(F)(F)F)ccc3OC(C)(C)C2O)c1=O (centres undefined)"
  readout: "melting point"
  result: "223 to 225 °C"
- compound: "COC(=O)C1CCc2cc(C)c(C)cc2C1=O (centres undefined)"
  readout: "melting point"
  result: "80 to 81 °C"
- compound: "C=CCOc1ccccc1OCC(O)CNC1CCc2ccccc2C1 (centres undefined)"
  readout: "melting point"
  result: "98 to 100 °C"
- compound: "COc1cc(/C(C#N)=C\\c2ccc(C)c(N)c2)cc(OC)c1OC"
  readout: "melting point"
  result: "161 to 162 °C"
- compound: "C=CC(=O)N1C(C)(C)CC(OC(=O)CCCC(C)(C)c2cc(OC)c(C(C)(C)CCCC(=O)OC3CC(C)(C)N(C(=O)C=C)C(C)(C)C3)cc2O)CC1(C)C"
  readout: "melting point"
  result: "50 to 52 °C"
- compound: "CC(C(=O)O)c1cc([N+](=O)[O-])ccc1F (centres undefined)"
  readout: "melting point"
  result: "88 to 90 °C"
- compound: "C#CCN1C(=O)COc2ccc(-c3ncc(C(F)(F)F)cc3Cl)cc21"
  readout: "melting point"
  result: "136 to 137 °C"
- compound: "CC(C)(C)OC(=O)NC1CCCCCC=CC2CC2(C(=O)NS(=O)(=O)C2CC2)NC(=O)C2CC(OC(=O)c3ccccn3)CN2C1=O (centres undefined)"
  readout: "melting point"
  result: "164 to 166 °C"
- compound: "Cc1nnc2ccc(-c3cccc(NC(C)C)c3)nn12"
  readout: "melting point"
  result: "157 to 159 °C"
- compound: "Cc1nc2cc(C(=O)NC3CC3)c(NC(=O)c3cc(C(F)(F)F)nn3-c3ncccc3Cl)c(Cl)c2n1C"
  readout: "melting point"
  result: "233 to 235 °C"
- compound: "Cn1c(=O)ccc2cnc(NCCc3ccccn3)nc21"
  readout: "melting point"
  result: "155 to 156 °C"
- compound: "O=C1Nc2ccccc2N(C(=O)CNCCc2ccccc2)C2CCC(Cc3ccccc3)C12 (centres undefined)"
  readout: "melting point"
  result: "108 to 109 °C"
- compound: "CC(C)Oc1ccc(CCC(=O)NS(=O)(=O)c2ccccc2)c(Oc2ncc(C(F)(F)F)cc2Cl)c1"
  readout: "melting point"
  result: "129 to 130 °C"
